Entries annotated with measured GI50
Test system: T47D
Assay: NCI tumour cell line growth inhibition, 48 h
Active and inactive are the calls of the source. Cut-off read from the data, not from the text of the source: active = GI50 up to about 1.1 µM and inactive = higher.
measurement-name: GI50

[
  {
    "compound": "CC(C)=C1C(=O)C[C@@]2(C)C[C@H]3OC3(C)CC/C=C(/C)CCC12 (some centres undefined)",
    "result": "49.4 µM (inactive)"
  },
  {
    "compound": "C/C(=N\\N=C1/C(=O)OC(c2ccccc2)=C1C(=O)c1ccccc1)c1ccc([N+](=O)[O-])cc1",
    "result": "42.9 µM (inactive)"
  },
  {
    "compound": "CC(=O)OCCn1c(Cc2ccc([N+](=O)[O-])cc2)nn(C(C)=O)c1=O",
    "result": "> 100 µM (inactive)"
  },
  {
    "compound": "CC(C)=CCN1c2ccccc2[C@@]2(CC=C(C)C)CCN(C)[C@@H]12 [(+)-DEBROMOFLUSTRAMINE B]",
    "result": "20.7 µM (inactive)"
  }
]

* * *

Test system: LOX IMVI
Assay: NCI tumour cell line growth inhibition, 48 h
Active and inactive are the calls of the source. No stated cut-off is given here; in the data, active = GI50 up to about 1.1 µM and inactive = higher.
Entries annotated with measured GI50

[
  {
    "compound": "COc1ccc(C)cc1NC(=S)N/N=C/c1ccco1",
    "GI50": "43.1 µM (inactive)"
  },
  {
    "compound": "NS(=O)(=O)c1cc2c(cc1Cl)NC(Cc1ccccc1)NS2(=O)=O (stereo unspecified) [BENZYLHYDROCHLOROTHIAZIDE]",
    "GI50": "99.8 µM (inactive)"
  },
  {
    "compound": "Cc1nn(-c2ccccc2)c(C)c1/C=N/N=C1\\SCC(=O)N1c1ccccc1",
    "GI50": "22.6 µM (inactive)"
  },
  {
    "compound": "C[C@H](C/C=C/C(C)(C)O)[C@H]1CC[C@@]2(C)[C@@H]3CC[C@H]4C(C)(C)[C@@H](O)CC[C@@]45C[C@@]35CC[C@]12C",
    "GI50": "11.7 µM (inactive)"
  },
  {
    "compound": "O=[PH]1c2ccccc2Nc2ccccc21",
    "GI50": "> 100 µM (inactive)"
  },
  {
    "compound": "COC(=O)[C@@H]1Cc2c([nH]c3ccccc23)[C@H](c2ccccc2)N1",
    "GI50": "38.9 µM (inactive)"
  }
]

* * *

System: Malme-3M
Experiment: NCI tumour cell line growth inhibition, 48 h
Active and inactive are the calls of the source. No stated cut-off is given here; in the data, active = GI50 up to about 1.1 µM and inactive = higher.
Labels: active, inactive

[
  {
    "compound": "O=c1[nH]c2c3ccccc3ccc2c2cc3c(cc12)OCO3",
    "tgt": "Malme-3M",
    "cat": "inactive"
  },
  {
    "compound": "CC(C)c1cc(C(F)(F)F)nc(NNc2nc(C(C)C)cc(C(F)(F)F)n2)n1",
    "tgt": "Malme-3M",
    "cat": "inactive"
  },
  {
    "compound": "CCCC(=O)Nc1cc(/C=C/C(=O)N2CC(CCl)c3c2cc(OCc2ccccc2)c2[nH]cc(C)c32)n(C)c1 (stereo unspecified)",
    "tgt": "Malme-3M",
    "cat": "active"
  },
  {
    "compound": "Cc1ccc(SSCCCS(=O)O)cc1",
    "tgt": "Malme-3M",
    "cat": "inactive"
  },
  {
    "compound": "NC(CCc1ccccc1)(C(=O)O)c1ccccc1 (stereo unspecified)",
    "tgt": "Malme-3M",
    "cat": "inactive"
  },
  {
    "compound": "O=C(N/N=C/c1ccc(Cl)cc1)c1c(Cl)c(Cl)c(Cl)c(Cl)c1-c1nc2ccccc2[nH]1",
    "tgt": "Malme-3M",
    "cat": "inactive"
  },
  {
    "compound": "Cn1c2ccccc2c2c3c(c4c5ccccc5n(C)c4c21)C(=O)N(Cc1ccccc1)C3=O",
    "tgt": "Malme-3M",
    "cat": "inactive"
  },
  {
    "compound": "C[N+](C)(Cc1ccc(NC(=O)CCCC(=O)ON2C(=O)CCC2=O)cc1)c1ccccc1",
    "tgt": "Malme-3M",
    "cat": "active"
  },
  {
    "compound": "[N-]=[N+]=CC(=O)OCC(N)C(=O)O (stereo unspecified)",
    "tgt": "Malme-3M",
    "cat": "inactive"
  },
  {
    "compound": "C=C1C(=O)C[C@@]23CCC[C@@]12CC(O)C3 (stereo partly specified)",
    "tgt": "Malme-3M",
    "cat": "active"
  },
  {
    "compound": "O=C(O)c1nc2ccc(C(F)(F)F)cc2[nH]c1=O",
    "tgt": "Malme-3M",
    "cat": "inactive"
  },
  {
    "compound": "CCOC(=O)c1ccc(N[C@@H]2c3cc4c(cc3C(c3cc(OC)c(O)c(OC)c3)[C@H]3C(=O)OCC32)OCO4)cc1O (stereo partly specified)",
    "tgt": "Malme-3M",
    "cat": "active"
  },
  {
    "compound": "C#Cc1c(C)c(/C=C/C(C)=C\\C(=O)OC)n(C)c1C",
    "tgt": "Malme-3M",
    "cat": "inactive"
  },
  {
    "compound": "Clc1ccc(NCc2nnc(COc3ccc(OCc4nnc(CNc5ccc(Cl)cc5)o4)c(Cl)c3)o2)cc1",
    "tgt": "Malme-3M",
    "cat": "inactive"
  },
  {
    "compound": "CC(C)c1ccccc1NC(=O)C(=O)Cc1nc2ccccc2s1",
    "tgt": "Malme-3M",
    "cat": "inactive"
  },
  {
    "compound": "CSC(SC)(C(=O)O)c1cc(-c2c(Cl)cccc2Cl)no1",
    "tgt": "Malme-3M",
    "cat": "inactive"
  },
  {
    "compound": "CCCc1ccc(/N=C\\c2cc(OC)c(OC)c(OC)c2)cc1",
    "tgt": "Malme-3M",
    "cat": "inactive"
  },
  {
    "compound": "CCNC(=O)NNc1ncnc2c1c(-c1ccc(Cl)cc1)cn2-c1ccc(C)cc1",
    "tgt": "Malme-3M",
    "cat": "inactive"
  },
  {
    "compound": "COc1ccc(C(=O)C(Br)C(Br)C(=O)O)cc1 (stereo unspecified)",
    "tgt": "Malme-3M",
    "cat": "inactive"
  },
  {
    "compound": "Cc1cc(C)nc(SCCc2cccc[n+]2C)n1",
    "tgt": "Malme-3M",
    "cat": "inactive"
  },
  {
    "compound": "c1ccc2c(c1)CC1=C(O2)c2ccccc2OC1",
    "tgt": "Malme-3M",
    "cat": "inactive"
  }
]
